The values you see were collected from patent US20250043022A1.

Reported EC50 values for the following binders.
- target: T1, human PSMA antigen (R&D SYSTEM, 4234-ZN-010) (human, UniProt Q04609 44-750)
- T1 construct: bought antigen
- T1 sequence (Q04609 44-750 limits assumed): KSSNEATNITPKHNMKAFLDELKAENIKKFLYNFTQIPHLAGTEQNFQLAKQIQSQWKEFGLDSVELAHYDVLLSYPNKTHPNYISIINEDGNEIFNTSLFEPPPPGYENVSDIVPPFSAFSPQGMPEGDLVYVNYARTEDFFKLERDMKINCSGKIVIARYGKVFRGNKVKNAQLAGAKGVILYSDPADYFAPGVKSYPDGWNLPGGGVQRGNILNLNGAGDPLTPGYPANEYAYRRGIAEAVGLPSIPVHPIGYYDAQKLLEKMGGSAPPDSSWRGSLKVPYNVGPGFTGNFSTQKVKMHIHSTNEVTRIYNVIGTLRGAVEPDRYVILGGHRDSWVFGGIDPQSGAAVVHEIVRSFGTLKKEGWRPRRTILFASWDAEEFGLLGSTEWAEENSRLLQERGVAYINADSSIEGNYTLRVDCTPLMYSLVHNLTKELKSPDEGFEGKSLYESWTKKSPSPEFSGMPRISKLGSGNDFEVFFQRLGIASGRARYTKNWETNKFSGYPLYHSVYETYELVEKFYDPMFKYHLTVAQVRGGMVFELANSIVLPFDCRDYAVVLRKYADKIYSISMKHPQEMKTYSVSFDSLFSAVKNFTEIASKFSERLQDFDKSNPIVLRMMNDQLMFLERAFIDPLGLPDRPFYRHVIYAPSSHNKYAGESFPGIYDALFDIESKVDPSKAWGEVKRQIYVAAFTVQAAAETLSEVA
- protocol-details: ELISA, plate-bound PSMA antigen

binder: Chi13 (antibody, human IgG1, kappa, V domains shown, chimeric antibody, hIgG1/kappa) VH: QVQLKESGPGLVAPSQSLSITCTVSGFSLTNYAISWVRQPPGKGLEWLGVIWTGGGTHYNSALKSRLSISKDNSKSQVFLKMNSLQTDDTARYYCARKGNYYGSSLYYYAMNYWGQGTSVTVSS VL: DIQMTQTTSSLSASLGDRVTISCRASQDISNYLNWYQQKPDGTVKLLIYYTSRLQSGVPSRFSGSGSGTDYSLSISNLEQEDIATYFCQQGDTLPYTFGGGTKLEIRT
value-units: µg/mL
EC50: 0.0409
--
binder: hu31H1L1 (antibody, human IgG1, kappa, V domains shown) VH: EVQLVESGGGLVQPGGSLRLSCAASGFTFSDYYMAWVRQAPGKGLEWVASINYDGSSTYYLDSLKSRFTISRDNAKNSLYLQMNSLRAEDTAVYYCAGSDGYWAWFAYWGQGTLVTVSS VL: DIQMTQSPSSLSASVGDRVTITCRASGNIHNYLAWYQQKPGKAPKLLIYNAETLADGVPSRFSGSGSGTDFTLTISSLQPEDFATYYCQHFWSTPPTFGGGTKVEIKR
value-units: µg/mL
EC50: 0.0864
--
binder: hu15H4L2 (antibody, human IgG1, kappa, V domains shown) VH: EFQLVQSGAEVKKPGASVKVSCKASGYSFTDHNMNWVRQAPGQRLEWMGLINPNYGTADYNQKFKGRVTLTVDQSATTAYMELSSLRSEDTAVYYCARGSSLFAYWGQGTLVTVSS VL: DIQMTQSPSSLSASVGDRVTITCKASQGVDTAVAWYQQKPGKSPKLLIYWASTRHTGVPDRFSGSGSGTDFTLTISSLQPEDVATYYCQQYSRYPLTFGQGTKLEIKR
value-units: µg/mL
EC50: 0.0421
--
binder: hu41H2L2 (antibody, human IgG1, kappa, V domains shown) VH: EVQLVQSGAEVKKPGASVKVSCKASGYTFTSYGISWVRQAPGQGLEWMGEIFPRRGNTYYNEKFRGRVTLTADKSTSTAYMELRSLRSDDTAVYYCARVFDGYYNYAMDYWGQGTTVTVSS VL: DIQMTQSPSSLSASVGDRVTITCRASQDIGSSLNWLQQKPGKAIKRLIYATSSLDSGVPSRFSGSRSGTDYTLTISSLQPEDFATYYCLQYASSPYTFGGGTKVEIKR
value-units: µg/mL
EC50: 0.61
